Tested System: C5aR (Homo sapiens (Human), UniProt P21730)
Sequence (P21730 whole entry): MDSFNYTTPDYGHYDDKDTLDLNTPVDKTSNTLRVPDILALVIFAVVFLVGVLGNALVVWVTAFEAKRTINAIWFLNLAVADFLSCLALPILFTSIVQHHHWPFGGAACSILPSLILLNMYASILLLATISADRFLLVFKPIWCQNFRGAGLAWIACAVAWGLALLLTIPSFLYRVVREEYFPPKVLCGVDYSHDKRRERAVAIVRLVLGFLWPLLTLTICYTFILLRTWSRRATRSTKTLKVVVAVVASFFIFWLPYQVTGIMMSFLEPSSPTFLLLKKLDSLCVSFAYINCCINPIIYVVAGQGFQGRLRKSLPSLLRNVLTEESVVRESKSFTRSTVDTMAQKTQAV
Method Summary: Chemotaxis assay using U937 cells (C5aR mediated migration)
Condition Info: read-out: Mig IC50
Reported Endpoint: IC50

Example entries begin here.
Give C5aR (Homo sapiens (Human), UniProt P21730) IC50 for CCc1cccc(CC)c1-n1nc2c(c1-c1cc(F)c(NC(N)=O)cc1F)CN(Cc1ccc(Cl)cc1C(F)(F)F)[C@H](C)C2
≤ 5 nM

Give C5aR (Homo sapiens (Human), UniProt P21730) IC50 for Cc1cccc(OCC(C)C)c1-n1nc2c(c1-c1ccc(NC(N)=O)cc1)CN(c1ncc(F)cc1C(F)(F)F)CC2
≤ 5 nM

Give C5aR (Homo sapiens (Human), UniProt P21730) IC50 for CCc1cccc(CC)c1-n1nc2c(c1-c1cc(F)c(NC(N)=O)cc1F)CN(Cc1cnn(CC)c1)CC2
50 to 500 nM

Give C5aR (Homo sapiens (Human), UniProt P21730) IC50 for Cc1cccc(OCC(C)C)c1-n1nc2c(c1-c1ccc(NC(N)=O)cc1)CN(c1ccc(F)c(C(F)(F)F)c1)CC2
5 to 50 nM

Give C5aR (Homo sapiens (Human), UniProt P21730) IC50 for Cc1ccc(C(F)(F)F)c(CN2CCc3nn(-c4c(C)cccc4OCC(C)C)c(-c4ccc(NC(N)=O)cc4)c3C2)c1
≤ 5 nM

Give C5aR (Homo sapiens (Human), UniProt P21730) IC50 for Cc1cccc(OCC(C)C)c1-n1nc2c(c1-c1ccc(NC(N)=O)cc1)CN(Cc1cc(C(F)(F)F)ccc1C(F)(F)F)CC2
≤ 5 nM

Need IC50 for each of these molecules.
1. Cc1cccc(C)c1-n1nc2c(c1-c1cc(F)c(NC(N)=O)cc1F)CN(C(C)(C)CO)CC2
2. CCc1cccc(CC)c1-n1nc2c(c1-c1cc(F)c(NC(N)=O)cc1F)CN(Cc1cnc(C)cc1C)CC2
3. Cc1cc(NC(N)=O)ccc1-c1c2c(nn1-c1c(C)cccc1OCC(C)C)CCN(c1ncc(C(F)(F)F)cc1F)C2

1: > 500 nM; 2: 5 to 50 nM; 3: 5 to 50 nM

Need IC50 for each of these molecules.
1. CCc1cccc(CC)c1-n1nc2c(c1-c1cc(F)c(NC(N)=O)cc1F)CN(Cc1ccc(C(F)(F)F)cc1C(F)(F)F)[C@@H](C)C2
2. Cc1cc(C)c(-n2nc3c(c2-c2ccc(NC(N)=O)cc2)CN(c2ncc(C(F)(F)F)cc2F)CC3)c(C)c1
3. Cc1cccc(OCC(C)C)c1-n1nc2c(c1-c1ccc(NC(N)=O)cc1)CN(Cc1cccc(C(F)(F)F)c1)CC2

≤ 5 nM
5 to 50 nM
5 to 50 nM

Need IC50 for each of these molecules.
1. CCc1cccc(CC)c1-n1nc2c(c1-c1cc(F)c(NC(N)=O)cc1F)CN(Cc1cc(F)ccc1C(F)(F)F)CC2
2. Cc1cccc(OCC(C)C)c1-n1nc2c(c1-c1ccc(NC(N)=O)cc1)CN(CC(C(F)(F)F)C(F)(F)F)CC2
3. Cc1cccc(OCC(C)C)c1-n1nc2c(c1-c1cc(F)c(NC(N)=O)cc1F)CN(C(C)(C)c1ccccc1)CC2
4. COc1cccc(C)c1-n1nc2c(c1-c1ccc(NC(N)=O)c(C)c1)CN(c1cc(C(C)(C)C)ccc1C)CC2
5. Cc1cccc(OCC(C)C)c1-n1nc2c(c1-c1ccc(NC(N)=O)cc1)CN(C(=O)C(C)(C)C)CC2
6. Cc1cccc(OCC(C)C)c1-n1nc2c(c1-c1ccc(NC(N)=O)cc1)CN(Cc1c(C(F)(F)F)ccc(Cl)c1F)CC2

≤ 5 nM
5 to 50 nM
≤ 5 nM
5 to 50 nM
50 to 500 nM
≤ 5 nM

Need IC50 for each of these molecules.
1. Cc1ccnc(C)c1-n1nc2c(c1-c1cc(F)c(NC(N)=O)cc1F)CN(C(C)(C)c1ccccc1)CC2
2. CCc1cccc(CC)c1-n1nc2c(c1-c1cc(F)c(NC(N)=O)cc1F)CN(Cc1cn(C)nc1C(F)(F)F)CC2
3. Cc1cccc(OCC(C)C)c1-n1nc2c(c1-c1ccc(NC(N)=O)c(F)c1)CN(CC1CCOC1)CC2 (stereo not drawn)
4. CC[C@H](c1ccccc1)N1CCc2nn(-c3c(C)cccc3C)c(-c3cc(F)c(NC(N)=O)cc3F)c2C1

1. 50 to 500 nM
2. 5 to 50 nM
3. 50 to 500 nM
4. ≤ 5 nM
